- TEST SYSTEM: D(1A) dopamine receptor (Homo sapiens)
- METHOD: Antagonist of Human D 1 Dopamine Receptor: qHTS; also: % is scaled to controls: 0 for no effect and ±100 for the full control effect
- STATED CONDITIONS: HEK293 TREx D1 cells, calcium flux, dopamine EC80; at 10 µM; active compounds read low
- Experimental: Dopamine receptors (DARs) are involved in the etiology and/or therapy of a number of neuropsychiatric and endocrine disorders. […] Freshly passaged cells are plated in 1536 well black, clear bottom plates at a density of 4000 cells/well in 3 ul of complete media containing 1x tetracycline inducer. […] Agonist read: A 10 cycle (1 second/cycle) baseline measurement is taken and then the FDSS online 1536 pintool delivers 23 nl of compound library (as well as dopamine controls) to the plate. […]
Hit rate of the full screen: of about 360,000 compounds, about 11,000 (3.1%) were called active. The full list was thinned out, with actives kept by preference.
REPORTED ENDPOINT: activity change, negative = inhibition (%)
# number only, unit % dropped from output

Previously resolved entries follow.
COc1cc2c(cc1OC)C(COc1ccc(F)cc1)N(C(=O)c1ccccc1F)CC2 (configuration not stated) : 1.87
CCN(CC)CCn1c(N)c(S(=O)(=O)c2ccccc2)c2nc3ccccc3nc21 : -52.8
COc1ccc(CC(=O)N2N=C(C)CC2(O)C(F)(F)F)cc1 (configuration not stated) : -2.03
CCOc1ccccc1CNCc1c(C(=O)O)c(C)n(Cc2ccc(C)cc2)c1C : 0.5
Cc1ccc(C)c2sc(NC(=O)c3ccc(S(=O)(=O)N4CCCC4)cc3)nc12 : 5.67
COc1ccc(OC)c(NC(=O)/C=C/c2ccc(C)o2)c1 : -17.2
COc1cc(OC)c(C2C=C(C(=O)O)Nc3ncnn32)cc1OC (configuration not stated) : 4.4
Cc1ccc(NC(=O)c2oc3ccc(S(=O)(=O)N4CCCCC4)cc3c2C)cc1Cl : 0.571
CN(CC(=O)Nc1ccc(F)cc1)C(=O)c1ccc(-c2ccc(Cl)cc2)o1 : -13.8
Cn1c(=O)cc(OCC(=O)N2CCN(c3ccccc3)CC2)c2ccccc21 : -4.64

Query: Look up activity change, negative = inhibition: COc1ccc(-c2nn(CC(=O)Nc3ccccc3F)c3c2cnc2ccc(F)cc23)cc1
Response: -0.202

Query: Look up activity change, negative = inhibition: O=C(CSc1n[nH]c(-c2ccccc2)n1)N1CCCCC1
Response: -15.7

Query: Look up activity change, negative = inhibition: O=C(Nc1ccccc1F)C(c1ccccc1)N1Cc2ccccc2C1=O (configuration not stated)
Response: -0.199

Query: Look up activity change, negative = inhibition: O=C(Nc1ccc2ccccc2c1)Nc1ccc2snnc2c1
Response: -44.8

Query: Look up activity change, negative = inhibition: CCn1c(=O)cc(OCC(=O)NCCCN2CCN(c3cccc(Cl)c3)CC2)c2ccccc21
Response: -46.8

Query: Look up activity change, negative = inhibition: COc1ccc(Nc2cc(C(=O)NCCCN(C)c3ccccc3)c3ccccc3n2)c(OC)c1
Response: -3.52

Query: Look up activity change, negative = inhibition: Cn1c(=O)c2c(nc(SCC(=O)Nc3ccc(F)cc3)n2Cc2ccccc2)n(C)c1=O
Response: 6.42

Query: Look up activity change, negative = inhibition: Cn1cc(S(=O)(=O)Nc2ccc(Cl)cc2Cl)c(=O)n(C)c1=O
Response: 1.88

Query: Look up activity change, negative = inhibition: CCOC(=O)N1CCN(CC(=O)c2ccc3c(c2)CCN3)CC1
Response: -32.2

Query: Look up activity change, negative = inhibition: CN(c1ccccc1)S(=O)(=O)c1cccc(NC(=O)Cc2ccc(Cl)cc2)c1
Response: -23.4

Query: Look up activity change, negative = inhibition: CCOC(=O)N1CCN(CC(=O)Nc2ccc(F)cc2)CC1
Response: 4.05

Query: Look up activity change, negative = inhibition: Cc1ccc(S(=O)(=O)c2c(N)n(C)c3nc4ccccc4nc23)cc1
Response: -3.59
